system.name: PRKD3 (human)
test.summary: KINOMEscan competition binding
applied.conditions: compound 10.0 µM
Decide using kinase still bound, per cent of control alone. Strictly below 40%: T. Equal to or above 40%: F.

Completed entries (count: 5):
smiles_str=COc1cc(C(=O)N2CCC(N3CCN(C)CC3)CC2)ccc1Nc1ncc2c(n1)N(C)c1ccccc1C(=O)N2C label=F
smiles_str=Cc1n[nH]c2ccc(-c3cncc(OC[C@@H](N)Cc4c[nH]c5ccccc45)c3)cc12 label=T
smiles_str=CCN1CCN(C(=O)Cc2ccc(Nc3ncc(F)c(Nc4ccc(C(=O)Nc5ccccc5Cl)cc4)n3)cc2)CC1 label=F
smiles_str=COc1cc(N2CCN(C)CC2)ccc1Nc1ncc2c(n1)N(C)c1ccccc1C(=O)N2C label=T
smiles_str=N#CCNC(=O)c1ccc(-c2ccnc(Nc3ccc(N4CCOCC4)cc3)n2)cc1 label=F

Prompt: Report whether reported kinase still bound, per cent of control is lower than 40% (strictly) for `COc1cc2ncnc(-n3nc(-c4ccccn4)nc3N)c2cc1OC`
Completion: F

Prompt: Report whether reported kinase still bound, per cent of control is lower than 40% (strictly) for `CCN(CC)CCCCNc1ncc2c(n1)N(C)C(=O)N(c1c(Cl)c(OC)cc(OC)c1Cl)C2`
Completion: F

Prompt: Report whether reported kinase still bound, per cent of control is lower than 40% (strictly) for `CS(=O)(=O)N1CCN(Cc2cc3nc(-c4cccc5[nH]ncc45)nc(N4CCOCC4)c3s2)CC1`
Completion: F

Prompt: Report whether reported kinase still bound, per cent of control is lower than 40% (strictly) for `C[C@@H](Oc1cc(-c2cnn(C3CCNCC3)c2)cnc1N)c1c(Cl)ccc(F)c1Cl`
Completion: T

* * *

Catalogue of molecules with associated kinase still bound, per cent of control
system.name: PHKG1 (human) (UniProt Q16816)
Sequence (Q16816 whole entry, looked up): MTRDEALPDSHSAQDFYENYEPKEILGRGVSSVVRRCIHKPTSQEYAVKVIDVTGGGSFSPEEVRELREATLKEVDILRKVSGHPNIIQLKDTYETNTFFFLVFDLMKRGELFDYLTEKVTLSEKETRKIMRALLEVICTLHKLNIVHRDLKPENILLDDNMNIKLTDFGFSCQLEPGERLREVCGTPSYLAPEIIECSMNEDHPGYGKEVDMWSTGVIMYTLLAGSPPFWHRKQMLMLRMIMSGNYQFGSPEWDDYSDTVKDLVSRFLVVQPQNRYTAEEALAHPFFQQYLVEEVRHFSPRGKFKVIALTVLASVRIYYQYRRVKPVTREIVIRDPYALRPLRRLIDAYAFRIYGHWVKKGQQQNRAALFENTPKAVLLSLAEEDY
test.summary: KINOMEscan competition binding
applied.conditions: compound 10.0 µM
Form entry: value (%) — number only.

Example molecules with recorded kinase still bound, per cent of control:
smiles_str=COc1ccc(N(C(=O)Oc2c(C)cccc2C)c2ccnc(Nc3ccc(N4CCN(C)CC4)cc3)n2)c(OC)c1 quantity_measured="kinase still bound, per cent of control" measurement_unit=% meas_value=12
smiles_str=CS(=O)(=O)N1CCN(Cc2cc3nc(-c4cccc5[nH]ncc45)nc(N4CCOCC4)c3s2)CC1 quantity_measured="kinase still bound, per cent of control" measurement_unit=% meas_value=100
smiles_str=C=CC(=O)Nc1ccc(CN(C(=O)Nc2c(Cl)c(OC)cc(OC)c2Cl)c2cc(Nc3ccc(N4CCN(C)CC4)cc3)ncn2)cc1 quantity_measured="kinase still bound, per cent of control" measurement_unit=% meas_value=100
smiles_str=NC(=O)Nc1cc(-c2cccc(F)c2)sc1C(=O)N[C@@H]1CCCNC1 quantity_measured="kinase still bound, per cent of control" measurement_unit=% meas_value=0.1

Moving on to another molecule below.
Prompt: Identify the reported kinase still bound, per cent of control for the following entry. `C=CC(=O)Nc1cc(-n2c(=O)ccc3cnc4ccc(-c5cn[nH]c5)cc4c32)ccc1C`
Completion: 58

* * *

system.name: PLK3 (human)
test.summary: KINOMEscan competition binding
applied.conditions: compound 10.0 µM
quantity.measured: kinase still bound, per cent of control (%)
Form entry: value (%) — number only.

smiles_str=C=CC(=O)Nc1cc(-n2c(=O)ccc3cnc4ccc(-c5cn[nH]c5)cc4c32)ccc1C quantity_measured="kinase still bound, per cent of control" meas_value=99
smiles_str=N#CCNC(=O)c1ccc(-c2ccnc(Nc3ccc(N4CCOCC4)cc3)n2)cc1 quantity_measured="kinase still bound, per cent of control" meas_value=11
smiles_str=CCN(CC)CCCCNc1ncc2c(n1)N(C)C(=O)N(c1c(Cl)c(OC)cc(OC)c1Cl)C2 quantity_measured="kinase still bound, per cent of control" meas_value=100
smiles_str=CNC(=O)c1ccc(Nc2cc(Nc3ccccc3S(=O)(=O)C(C)C)c3cc[nH]c3n2)nc1 quantity_measured="kinase still bound, per cent of control" meas_value=100
smiles_str=CCN(CC)CCCCNc1ncc2cc(-c3cc(OC)cc(OC)c3)c(NC(=O)NC(C)(C)C)nc2n1 quantity_measured="kinase still bound, per cent of control" meas_value=100

Prompt: Identify the reported kinase still bound, per cent of control for the following entry. `COc1cc(C(=O)N2CCC(N3CCN(C)CC3)CC2)ccc1Nc1ncc2c(n1)N(C)c1ccccc1C(=O)N2C`
Completion: 51

Prompt: Identify the reported kinase still bound, per cent of control for the following entry. `NC(=O)Nc1cc(-c2cccc(F)c2)sc1C(=O)N[C@@H]1CCCNC1`
Completion: 39

Prompt: Identify the reported kinase still bound, per cent of control for the following entry. `CN(C)C/C=C/C(=O)Nc1ccc(C(=O)Nc2cccc(Nc3nccc(-c4cccnc4)n3)c2)cc1`
Completion: 35

Prompt: Identify the reported kinase still bound, per cent of control for the following entry. `COc1cc2ncnc(-n3nc(-c4ccccn4)nc3N)c2cc1OC`
Completion: 33

Prompt: Identify the reported kinase still bound, per cent of control for the following entry. `C[C@@H](Oc1cc(-c2cnn(C3CCNCC3)c2)cnc1N)c1c(Cl)ccc(F)c1Cl`
Completion: 85

Prompt: Identify the reported kinase still bound, per cent of control for the following entry. `CCN1CCN(C(=O)Cc2ccc(Nc3ncc(F)c(Nc4ccc(C(=O)Nc5ccccc5Cl)cc4)n3)cc2)CC1`
Completion: 82

Prompt: Identify the reported kinase still bound, per cent of control for the following entry. `COCC(=O)NC/C=C/c1ccc2ncnc(Nc3ccc(Oc4ccc(C)nc4)c(C)c3)c2c1`
Completion: 99

* * *

system.name: MAP3K12 (human)
test.summary: KINOMEscan competition binding
applied.conditions: compound 10.0 µM
Decide using kinase still bound, per cent of control alone. Strictly below 70%: Condition met. Equal to or above 70%: Condition not met.

Completed entries (count: 5):
smiles_str=COc1cc(N2CCN(C)CC2)ccc1Nc1ncc2c(n1)N(C)c1ccccc1C(=O)N2C label="Condition not met"
smiles_str=CNC(=O)c1ccc(Nc2cc(Nc3ccccc3S(=O)(=O)C(C)C)c3cc[nH]c3n2)nc1 label="Condition met"
smiles_str=COc1cc2ncnc(-n3nc(-c4ccccn4)nc3N)c2cc1OC label="Condition met"
smiles_str=N#CCNC(=O)c1ccc(-c2ccnc(Nc3ccc(N4CCOCC4)cc3)n2)cc1 label="Condition not met"
smiles_str=COCC(=O)NC/C=C/c1ccc2ncnc(Nc3ccc(Oc4ccc(C)nc4)c(C)c3)c2c1 label="Condition not met"

Prompt: Report whether reported kinase still bound, per cent of control is lower than 70% (strictly) for `C[C@@H](Oc1cc(-c2cnn(C3CCNCC3)c2)cnc1N)c1c(Cl)ccc(F)c1Cl`
Completion: Condition met

Prompt: Report whether reported kinase still bound, per cent of control is lower than 70% (strictly) for `NC(=O)Nc1cc(-c2cccc(F)c2)sc1C(=O)N[C@@H]1CCCNC1`
Completion: Condition met

Prompt: Report whether reported kinase still bound, per cent of control is lower than 70% (strictly) for `CCN(CC)CCCCNc1ncc2c(n1)N(C)C(=O)N(c1c(Cl)c(OC)cc(OC)c1Cl)C2`
Completion: Condition not met

* * *

system.name: CSNK1G1 (human) (UniProt Q9HCP0)
Sequence (Q9HCP0 whole entry, looked up): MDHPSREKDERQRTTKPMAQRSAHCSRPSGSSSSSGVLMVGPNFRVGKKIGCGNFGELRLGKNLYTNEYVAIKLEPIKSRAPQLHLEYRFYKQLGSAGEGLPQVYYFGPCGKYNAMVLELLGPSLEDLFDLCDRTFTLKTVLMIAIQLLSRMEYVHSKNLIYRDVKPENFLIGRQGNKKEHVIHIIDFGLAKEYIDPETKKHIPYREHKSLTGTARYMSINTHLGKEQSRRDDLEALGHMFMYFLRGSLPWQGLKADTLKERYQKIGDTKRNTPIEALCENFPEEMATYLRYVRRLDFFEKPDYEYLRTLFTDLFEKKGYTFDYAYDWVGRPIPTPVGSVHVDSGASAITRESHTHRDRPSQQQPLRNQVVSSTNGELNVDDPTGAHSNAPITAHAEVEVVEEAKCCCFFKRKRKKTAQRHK
test.summary: KINOMEscan competition binding
applied.conditions: compound 10.0 µM
quantity.measured: kinase still bound, per cent of control (%)
Form entry: value (%) — number only.

Example compounds with recorded kinase still bound, per cent of control:
smiles_str=COc1cc(C(=O)N2CCC(N3CCN(C)CC3)CC2)ccc1Nc1ncc2c(n1)N(C)c1ccccc1C(=O)N2C system_name="CSNK1G1 (human) (UniProt Q9HCP0)" quantity_measured="kinase still bound, per cent of control" meas_value=100
smiles_str=NC(=O)Nc1cc(-c2cccc(F)c2)sc1C(=O)N[C@@H]1CCCNC1 system_name="CSNK1G1 (human) (UniProt Q9HCP0)" quantity_measured="kinase still bound, per cent of control" meas_value=7.6
smiles_str=CCN(CC)CCCCNc1ncc2cc(-c3cc(OC)cc(OC)c3)c(NC(=O)NC(C)(C)C)nc2n1 system_name="CSNK1G1 (human) (UniProt Q9HCP0)" quantity_measured="kinase still bound, per cent of control" meas_value=100
smiles_str=O=C1NC(=O)/C(=C/c2ccc3nccc(-c4ccncc4)c3c2)S1 system_name="CSNK1G1 (human) (UniProt Q9HCP0)" quantity_measured="kinase still bound, per cent of control" meas_value=20
smiles_str=CNC(=O)c1ccc(Nc2cc(Nc3ccccc3S(=O)(=O)C(C)C)c3cc[nH]c3n2)nc1 system_name="CSNK1G1 (human) (UniProt Q9HCP0)" quantity_measured="kinase still bound, per cent of control" meas_value=16
smiles_str=Cc1n[nH]c2ccc(-c3cncc(OC[C@@H](N)Cc4c[nH]c5ccccc45)c3)cc12 system_name="CSNK1G1 (human) (UniProt Q9HCP0)" quantity_measured="kinase still bound, per cent of control" meas_value=3.7
smiles_str=O=C(Nc1cccc(Nc2ncc(Br)c(NCCc3cnc[nH]3)n2)c1)N1CCCC1 system_name="CSNK1G1 (human) (UniProt Q9HCP0)" quantity_measured="kinase still bound, per cent of control" meas_value=54
smiles_str=O=c1cc(N2CCOCC2)oc2c(-c3cccc4c3sc3ccccc34)cccc12 system_name="CSNK1G1 (human) (UniProt Q9HCP0)" quantity_measured="kinase still bound, per cent of control" meas_value=92

Prompt: Identify the reported kinase still bound, per cent of control for the following entry. `COc1cc(N2CCN(C)CC2)ccc1Nc1ncc2c(n1)N(C)c1ccccc1C(=O)N2C`
Completion: 100

Data origin, for the record: the kinase profiling compilation of Christmann-Franck et al. (2016)
